- TARGET OF ASSAY: IRE1α-KR43 (Homo sapiens, UniProt O75460)
- Sequence (O75460 465-977 limits assumed): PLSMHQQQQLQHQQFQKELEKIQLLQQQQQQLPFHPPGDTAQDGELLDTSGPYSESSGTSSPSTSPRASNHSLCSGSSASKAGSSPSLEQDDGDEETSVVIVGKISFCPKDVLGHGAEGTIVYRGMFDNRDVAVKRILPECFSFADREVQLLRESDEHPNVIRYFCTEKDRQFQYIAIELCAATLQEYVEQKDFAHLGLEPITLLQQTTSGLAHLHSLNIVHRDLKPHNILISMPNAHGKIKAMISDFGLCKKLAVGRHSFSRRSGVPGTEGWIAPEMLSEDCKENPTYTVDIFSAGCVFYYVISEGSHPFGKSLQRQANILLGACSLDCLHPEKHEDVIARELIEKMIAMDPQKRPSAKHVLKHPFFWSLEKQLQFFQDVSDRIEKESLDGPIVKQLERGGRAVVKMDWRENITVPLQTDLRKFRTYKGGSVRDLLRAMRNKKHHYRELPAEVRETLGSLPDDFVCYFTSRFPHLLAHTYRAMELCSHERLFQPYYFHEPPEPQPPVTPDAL
- RUN DESCRIPTION: IRE1α-KR43 RNA cleavage assay with 5′ [32P]-labeled RNA substrate HP21 (kobs, single turnover)
- Type: biochemical
- Parameters: IRE1α-KR43 comprises the soluble cytoplasmic portion of IRE1α, composed of the kinase and RNase domains plus 43 amino acids of the linker; 6xHis (N, cleaved yes); made in house; host or cells: SF21 insect cells
- REPORTED CONDITIONS: compounds 1 μM, IRE1α-KR43 200 nM; versus DMSO control or cmp6/cmp7
PARAMETER MEASURED: IRE1α RNase activation (in words)

STRUCTURE SMILES: CC(C)(C)c1ccc(NC(=O)Nc2ccc(Nc3nccc(Nc4cc(C5CC5)[nH]n4)n3)cc2)cc1
TARGET OF ASSAY: IRE1α-KR43 (Homo sapiens, UniProt O75460)
PARAMETER MEASURED: IRE1α RNase activation (in words)
READOUT VALUE: decreased activities
--
STRUCTURE SMILES: O=C(Nc1ccc(Br)cc1)Nc1ccc(Nc2nccc(Nc3cc(C4CC4)[nH]n3)n2)cc1
TARGET OF ASSAY: IRE1α-KR43 (Homo sapiens, UniProt O75460)
PARAMETER MEASURED: IRE1α RNase activation (in words)
READOUT VALUE: decreased activities
--
STRUCTURE SMILES: CC(C)c1ccc(NC(=O)Nc2ccc(Nc3nccc(Nc4cc(C5CC5)[nH]n4)n3)cc2)cc1
TARGET OF ASSAY: IRE1α-KR43 (Homo sapiens, UniProt O75460)
PARAMETER MEASURED: IRE1α RNase activation (in words)
READOUT VALUE: decreased activities

====

- TARGET OF ASSAY: IRE1α-KR43 (Homo sapiens, UniProt O75460)
- RUN DESCRIPTION: IRE1α-KR43 RNA cleavage assay with 5′ [32P]-labeled RNA substrate HP21 (kobs, single turnover)
- Assay type: biochemical
- Parameters: IRE1α-KR43 comprises the soluble cytoplasmic portion of IRE1α, composed of the kinase and RNase domains plus 43 amino acids of the linker; 6xHis (N, cleaved yes); made in house; host or cells: SF21 insect cells
- REPORTED CONDITIONS: compounds 1 μM, IRE1α-KR43 200 nM, [32P]-labeled HP21
Here, each record is paired with measured fold activation of IRE1α-KR43 RNase activity data.

Worked examples follow.
COMPOUND: COc1ccc(NC(=O)Nc2ccc(Nc3nccc(Nc4cc(C5CC5)[nH]n4)n3)cc2)cc1 [cmp5]
READOUT VALUE: 10–100 fold

COMPOUND: O=C(Nc1ccc(Nc2nccc(Nc3cc(C4CC4)[nH]n3)n2)cc1)Nc1cccc(C(F)(F)F)c1 [cmp1]
READOUT VALUE: 10–100 fold

COMPOUND: CSc1ccc(NC(=O)Nc2ccc(Nc3nccc(Nc4cc(C5CC5)[nH]n4)n3)cc2)cc1 [IPA]
READOUT VALUE: 900 fold

COMPOUND: CCc1ccc(NC(=O)Nc2ccc(Nc3nccc(Nc4cc(C5CC5)[nH]n4)n3)cc2)cc1 [cmp3]
READOUT VALUE: 10–100 fold

COMPOUND: COc1cccc(NC(=O)Nc2ccc(Nc3nccc(Nc4cc(C5CC5)[nH]n4)n3)cc2)c1 [cmp4]
READOUT VALUE: 10–100 fold

COMPOUND: O=C(Nc1ccc(I)cc1)Nc1ccc(Nc2nccc(Nc3cc(C4CC4)[nH]n3)n2)cc1 [cmp7]
READOUT VALUE: 900 fold

Kindly review the next compound as well.
Form field, fold activation of IRE1α-KR43 RNase activity with IRE1α-KR43 (Homo sapiens, UniProt O75460), item Cc1ccc(NC(=O)Nc2ccc(Nc3nccc(Nc4cc(C5CC5)[nH]n4)n3)cc2)cc1 [cmp2] : 10–100 fold
